Data origin: ChEMBL document CHEMBL1140710

- TARGET_ENTITY: Melanocortin receptor 3 (Homo sapiens)
- METHOD_DESCRIPTION: biochemical
MEASURED_METRIC: IC50 (nM)
Express it in nM; write the number only.

// worked examples, IC50 included
CCCC[C@@H]1NC(=O)CCC(=O)NCCCC[C@@H](C(N)=O)NC(=O)[C@H](Cc2c[nH]c3ccccc23)NC(=O)[C@H](CCCN=C(N)N)NC(=O)[C@@H](Cc2ccccc2)NC1=O ... 84
NC(=O)[C@@H]1CCCCNC(=O)CCCC(=O)N2CCC[C@H]2C(=O)N[C@H](Cc2ccc3ccccc3c2)C(=O)N[C@@H](CCCN=C(N)N)C(=O)N[C@@H](Cc2c[nH]c3ccccc23)C(=O)N1 ... 11
CCCC[C@@H]1NC(=O)CCC(=O)NCCCC[C@@H](C(N)=O)NC(=O)[C@H](Cc2c[nH]c3ccccc23)NC(=O)[C@H](CCCN=C(N)N)NC(=O)[C@@H](Cc2ccc3ccccc3c2)NC1=O ... 12
N=C(N)NCCC[C@@H]1NC(=O)[C@@H](Cc2ccccc2)NC(=O)c2nccnc2C(=O)NCCCC[C@@H](C(N)=O)NC(=O)[C@H](Cc2c[nH]c3ccccc23)NC1=O ... 1100
NC(=O)[C@@H]1CCCCNC(=O)c2nccnc2C(=O)N[C@H](Cc2ccc3ccccc3c2)C(=O)N[C@@H](CCCN=C(N)N)C(=O)N[C@@H](Cc2c[nH]c3ccccc23)C(=O)N1 ... 23

Look at this compound and give its reported IC50. `NC(=O)[C@@H]1CCCCNC(=O)CCCC(=O)N2CCC[C@H]2C(=O)N[C@H](Cc2ccccc2)C(=O)N[C@@H](CCCN=C(N)N)C(=O)N[C@@H](Cc2c[nH]c3ccccc23)C(=O)N1`
385

# lookup: IC50 of `N=C(N)NCCC[C@@H]1NC(=O)[C@@H](Cc2ccc3ccccc3c2)NC(=O)[C@@H]2CCCN2C(=O)/C=C\C(=O)NCCCC[C@@H](C(N)=O)NC(=O)[C@H](Cc2c[nH]c3ccccc23)NC1=O`
20

Would you mind telling me what IC50 value was observed for `N=C(N)NCCC[C@@H]1NC(=O)[C@@H](Cc2ccc3ccccc3c2)NC(=O)[C@@H]2CCCN2C(=O)c2ccccc2C(=O)NCCCC[C@@H](C(N)=O)NC(=O)[C@H](Cc2c[nH]c3ccccc23)NC1=O` ?
32

---

- TARGET_ENTITY: Melanocortin receptor 3 (Homo sapiens)
- METHOD_DESCRIPTION: Agonist activity at human MC3 receptor expressed in HEK293 cells assessed as intracellular cAMP accumulation at 10 uM relative to MT2
- Type: functional, cell-based
MEASURED_METRIC: Activity (%)
Number only, in %; omit the unit.

Study these solved cases before continuing.
N=C(N)NCCC[C@@H]1NC(=O)[C@@H](Cc2ccccc2)NC(=O)c2cccc(n2)C(=O)NCCCC[C@@H](C(N)=O)NC(=O)[C@H](Cc2c[nH]c3ccccc23)NC1=O ... 0
N=C(N)NCCC[C@@H]1NC(=O)[C@@H](Cc2ccc3ccccc3c2)NC(=O)c2cccc(n2)C(=O)NCCCC[C@@H](C(N)=O)NC(=O)[C@H](Cc2c[nH]c3ccccc23)NC1=O ... 0
N=C(N)NCCC[C@@H]1NC(=O)[C@@H](Cc2ccccc2)NC(=O)[C@@H]2CCCN2C(=O)/C=C\C(=O)NCCCC[C@@H](C(N)=O)NC(=O)[C@H](Cc2c[nH]c3ccccc23)NC1=O ... 80
N=C(N)NCCC[C@@H]1NC(=O)[C@@H](Cc2ccc3ccccc3c2)NC(=O)[C@@H]2CCCN2C(=O)c2ccccc2C(=O)NCCCC[C@@H](C(N)=O)NC(=O)[C@H](Cc2c[nH]c3ccccc23)NC1=O ... 0
N=C(N)NCCC[C@@H]1NC(=O)[C@@H](Cc2ccc3ccccc3c2)NC(=O)c2nccnc2C(=O)NCCCC[C@@H](C(N)=O)NC(=O)[C@H](Cc2c[nH]c3ccccc23)NC1=O ... 0

Short answer please: Activity, Melanocortin receptor 3 (Homo sapiens), entry `N=C(N)NCCC[C@@H]1NC(=O)[C@@H](Cc2ccccc2)NC(=O)c2nccnc2C(=O)NCCCC[C@@H](C(N)=O)NC(=O)[C@H](Cc2c[nH]c3ccccc23)NC1=O`
70

Form field - read-out: Activity; system: Melanocortin receptor 3 (Homo sapiens); submitted item: `N=C(N)NCCC[C@@H]1NC(=O)[C@@H](Cc2ccccc2)NC(=O)[C@@H]2CCCN2C(=O)c2ccccc2C(=O)NCCCC[C@@H](C(N)=O)NC(=O)[C@H](Cc2c[nH]c3ccccc23)NC1=O`
100

So what Activity did `N=C(N)NCCC[C@@H]1NC(=O)[C@@H](Cc2ccc3ccccc3c2)NC(=O)[C@@H]2CCCN2C(=O)/C=C\C(=O)NCCCC[C@@H](C(N)=O)NC(=O)[C@H](Cc2c[nH]c3ccccc23)NC1=O` get with Melanocortin receptor 3 (Homo sapiens)?
0

---

- TARGET_ENTITY: Melanocortin receptor 3 (Homo sapiens, UniProt P41968)
- Sequence (P41968 whole entry): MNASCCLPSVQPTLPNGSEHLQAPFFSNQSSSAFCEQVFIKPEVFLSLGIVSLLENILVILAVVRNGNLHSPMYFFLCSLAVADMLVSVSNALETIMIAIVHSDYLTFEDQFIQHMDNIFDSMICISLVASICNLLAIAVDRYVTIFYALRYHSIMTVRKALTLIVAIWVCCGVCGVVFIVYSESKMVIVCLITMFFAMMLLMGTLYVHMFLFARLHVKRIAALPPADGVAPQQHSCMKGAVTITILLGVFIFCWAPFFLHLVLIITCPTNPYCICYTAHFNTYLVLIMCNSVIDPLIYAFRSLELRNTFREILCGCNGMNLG
- METHOD_DESCRIPTION: Agonist activity at human MC3 receptor expressed in HEK293 cells assessed as intracellular cAMP accumulation
MEASURED_METRIC: pEC50
Scale: negative log10 of molar concentration, which is what pEC50 denotes.

NC(=O)[C@@H]1CCCCNC(=O)CCCC(=O)N2CCC[C@H]2C(=O)N[C@H](Cc2ccccc2)C(=O)N[C@@H](CCCN=C(N)N)C(=O)N[C@@H](Cc2c[nH]c3ccccc23)C(=O)N1 ... 7.54
N=C(N)NCCC[C@@H]1NC(=O)[C@@H](Cc2ccccc2)NC(=O)c2nccnc2C(=O)NCCCC[C@@H](C(N)=O)NC(=O)[C@H](Cc2c[nH]c3ccccc23)NC1=O ... 7.57
N=C(N)NCCC[C@@H]1NC(=O)[C@@H](Cc2ccccc2)NC(=O)[C@@H]2CCCN2C(=O)/C=C\C(=O)NCCCC[C@@H](C(N)=O)NC(=O)[C@H](Cc2c[nH]c3ccccc23)NC1=O ... 7.00

Next compound, please.
# value lookup — system Melanocortin receptor 3 (Homo sapiens, UniProt P41968), readout pEC50, item `N=C(N)NCCC[C@@H]1NC(=O)[C@@H](Cc2ccccc2)NC(=O)[C@@H]2CCCN2C(=O)c2ccccc2C(=O)NCCCC[C@@H](C(N)=O)NC(=O)[C@H](Cc2c[nH]c3ccccc23)NC1=O`
7.02

---

Recorded EC50, one value per entry.
- TARGET_ENTITY: Melanocyte-stimulating hormone receptor (Homo sapiens)
- METHOD_DESCRIPTION: Agonist activity at human MC1 receptor expressed in HEK293 cells assessed as intracellular cAMP accumulation
- Sequence (Q01726 whole entry): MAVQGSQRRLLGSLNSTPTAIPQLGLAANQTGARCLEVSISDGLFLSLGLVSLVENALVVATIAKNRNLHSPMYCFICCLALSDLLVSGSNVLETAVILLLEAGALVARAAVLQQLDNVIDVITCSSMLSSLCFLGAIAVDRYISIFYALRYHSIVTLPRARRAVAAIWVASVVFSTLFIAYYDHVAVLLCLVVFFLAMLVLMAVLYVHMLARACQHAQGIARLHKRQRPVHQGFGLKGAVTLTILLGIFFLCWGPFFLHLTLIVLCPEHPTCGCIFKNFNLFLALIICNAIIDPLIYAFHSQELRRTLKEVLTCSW

Would you please look over these solved cases?
N=C(N)NCCC[C@@H]1NC(=O)[C@@H](Cc2ccccc2)NC(=O)c2cccc(n2)C(=O)NCCCC[C@@H](C(N)=O)NC(=O)[C@H](Cc2c[nH]c3ccccc23)NC1=O ... > 1 µM
CCCC[C@@H]1NC(=O)CCC(=O)NCCCC[C@@H](C(N)=O)NC(=O)[C@H](Cc2c[nH]c3ccccc23)NC(=O)[C@H](CCCN=C(N)N)NC(=O)[C@@H](Cc2ccc3ccccc3c2)NC1=O ... > 1 µM
N=C(N)NCCC[C@@H]1NC(=O)[C@@H](Cc2ccc3ccccc3c2)NC(=O)[C@@H]2CCCN2C(=O)c2ccccc2C(=O)NCCCC[C@@H](C(N)=O)NC(=O)[C@H](Cc2c[nH]c3ccccc23)NC1=O ... > 5 µM
N=C(N)NCCC[C@@H]1NC(=O)[C@@H](Cc2ccccc2)NC(=O)c2nccnc2C(=O)NCCCC[C@@H](C(N)=O)NC(=O)[C@H](Cc2c[nH]c3ccccc23)NC1=O ... > 10 µM

Report EC50 for `NC(=O)[C@@H]1CCCCNC(=O)c2nccnc2C(=O)N[C@H](Cc2ccc3ccccc3c2)C(=O)N[C@@H](CCCN=C(N)N)C(=O)N[C@@H](Cc2c[nH]c3ccccc23)C(=O)N1` tested on Melanocyte-stimulating hormone receptor (Homo sapiens).
> 3 µM

---

- TARGET_ENTITY: Melanocyte-stimulating hormone receptor (Homo sapiens, UniProt Q01726)
- METHOD_DESCRIPTION: Agonist activity at human MC1 receptor expressed in HEK293 cells assessed as intracellular cAMP accumulation at 10 uM relative to MT2
- Format: functional, cell-based
- Sequence (Q01726 whole entry, looked up): as the sequence (Q01726 whole entry) above
MEASURED_METRIC: Activity
Kindly report the value followed by its unit.

N=C(N)NCCC[C@@H]1NC(=O)[C@@H](Cc2ccc3ccccc3c2)NC(=O)[C@@H]2CCCN2C(=O)/C=C\C(=O)NCCCC[C@@H](C(N)=O)NC(=O)[C@H](Cc2c[nH]c3ccccc23)NC1=O ... 0%

Look at this compound and give its reported Activity. `N=C(N)NCCC[C@@H]1NC(=O)[C@@H](Cc2ccccc2)NC(=O)c2nccnc2C(=O)NCCCC[C@@H](C(N)=O)NC(=O)[C@H](Cc2c[nH]c3ccccc23)NC1=O`
60%

Given `N=C(N)NCCC[C@@H]1NC(=O)[C@@H](Cc2ccccc2)NC(=O)c2cccc(n2)C(=O)NCCCC[C@@H](C(N)=O)NC(=O)[C@H](Cc2c[nH]c3ccccc23)NC1=O` , state its recorded Activity.
15%
